Experimental Target: IL16_4, Q14005
Sequence (Q14005 1229-1329): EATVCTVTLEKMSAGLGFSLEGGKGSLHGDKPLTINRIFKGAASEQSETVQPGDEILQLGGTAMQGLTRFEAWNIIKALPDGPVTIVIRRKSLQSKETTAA
Method Summary: holdup assay
Design: key: below the threshold = too weak to quantify, mostly under pKd 3.1 to 4
Study Conditions: plain residues with an end cap or a label only (N-terminal biotin on a linker: ado-ado)
Quantity Kind: pKd

Some binders with known pKd results, for comparison:
EKPIDSETKM [SLC1A3, P43003] = below the threshold
RDYTQSSSSL [GRM5, P41594] = below the threshold
THHRKIHTRV [ZNF599, Q96NL3] = below the threshold
NKSEPFLTWL [WWTR1, Q9GZV5] = below the threshold
SKQFDKNAYV [CLDN10, P78369] = below the threshold

List pKd for every entry below, keeping the order given.
1. GDSSRKEYFI [GYPC, P04921]
2. ADEMICITTL [CACNA1D, Q01668]

below the threshold
below the threshold

List pKd for every entry below, keeping the order given.
1. PDSYHRRDFW [U2AF2, P26368]
2. NNMAFETTHF [SLC5A12, Q1EHB4]
3. SRPHTNETSL [MCC, P23508]
4. PLPPEEESWV [GAS2L2, Q8NHY3]
5. VCMGDHWFDV [PRKN, O60260]
6. EPAKETTTNV [SLC2A3, P11169]
7. QLKSGRDSTV [TMEM178A, Q8NBL3]
8. IKLETKKTKL [SLC15A2, Q16348]

1. 3.68
2. below the threshold
3. below the threshold
4. below the threshold
5. below the threshold
6. below the threshold
7. 3.83
8. 3.72

List pKd for every entry below, keeping the order given.
1. SQDPKKPSRV [CBY2, Q8NA61]
2. NTALVESEDL [PALLS, Q8WX93]
3. QRYPGNQTTC [CCL24, O00175]
4. GSQSQVETEA [FKBP4, Q02790]
5. ATKDKKITTV [EXOC4, Q96A65]

1. below the threshold
2. 3.57
3. below the threshold
4. below the threshold
5. below the threshold
